Test system: T-47D breast
Assay Notes: NCI-60 one-dose screen, 48 h (100 = growth as untreated, 0 = no growth, -100 = all killed)
Settings: 10 µM
Compounds without any hit were thinned out: in the full panel of roughly 83,000, 20% have a hit.
Metric Name: growth (%)
Express it in %; write the number only.

QUERY: Field request: growth | item: c1cnc2[nH]cc(-c3nc(-c4ccsc4)cs3)c2c1
RESULT: 66.1

QUERY: Field request: growth | item: COc1cccc(C2C(C#N)=C(N)Oc3cc(N)ccc32)c1 (stereo unspecified)
RESULT: 10.4

QUERY: Field request: growth | item: CCN(CC)CCOc1cccc2c1C(=O)c1cccc(OCCN(CC)CC)c1C2=O
RESULT: 92.2

QUERY: Field request: growth | item: O=C(CI)OCC(COC(=O)CI)OC(=O)CI
RESULT: 35.4

QUERY: Field request: growth | item: CCOC(=O)c1cc(C(=O)c2ccc(OC)c(OC)c2)n2ccncc12
RESULT: 78.8

QUERY: Field request: growth | item: COc1cc(/C=C/c2cc(/C=C/c3ccc(O)c(OC)c3)n(C(=O)Nc3ccccc3Cl)n2)ccc1O
RESULT: 4.55

QUERY: Field request: growth | item: O=C1CCn2c1c(O)c1ccccc1c2=O
RESULT: 94.5

QUERY: Field request: growth | item: COc1cc2c(cc1OC)C(C(CCCCCC(CCC(C)C)C1NCCc3cc(OC)c(OC)cc31)CCC(C)C)NCC2 (stereo unspecified)
RESULT: -85.2

QUERY: Field request: growth | item: Cc1cc(CC(C)CC(C)(C)C)n(O)c(=O)c1 (stereo unspecified) (tested in a mixture with another compound)
RESULT: 28.1

QUERY: Field request: growth | item: CN(C)c1nc(N)c2nccnc2n1
RESULT: 104

QUERY: Field request: growth | item: OCCn1cccn1
RESULT: 102

QUERY: Field request: growth | item: CC(C)(C)OC(=O)N1CCc2c(sc3ncnc(N/N=C/c4cccc(Br)c4)c23)C1
RESULT: 20.2

QUERY: Field request: growth | item: CCCc1nc(C(C)(C)O)c(C(=O)O)n1Cc1ccc(-c2ccccc2-c2nn[nH]n2)cc1
RESULT: 82.1

QUERY: Field request: growth | item: CCCCCCCCCCOC(c1ccccc1)c1ccccc1
RESULT: 77.1

QUERY: Field request: growth | item: Nc1nc(N)c(N)c(Nc2ccc(CCO)cc2)n1
RESULT: 102

QUERY: Field request: growth | item: O=C(CCn1cnc2c(cc(-c3ccccc3)n2-c2ccccc2)c1=O)Nc1ccc(F)cc1
RESULT: 68.2

QUERY: Field request: growth | item: C/C=C/CSC(C)(C)C(=O)NC
RESULT: 100

QUERY: Field request: growth | item: CSc1nc2c(c(=O)n1C)CN(Cc1ccccc1)C(=O)CN2
RESULT: 95

QUERY: Field request: growth | item: C=CCN(CC=C)C(=O)[C@H](CC)[C@@H]1CC[C@@H](C)[C@@H]([C@H](C)[C@@H](O)[C@@H](C)C(=O)[C@H](CC)C2O[C@]3(C=CC(=O)[C@]4(CC[C@@](C)([C@H]5CC[C@](O)(CC)[C@H](C)O5)O4)O3)[C@H](C)C[C@@H]2C)O1 (stereo partly specified)
RESULT: 18.2

QUERY: Field request: growth | item: Cc1nc2n(c(=O)c1CCN1CCC(c3noc4cc(F)ccc34)CC1)CCC[C@@H]2O
RESULT: 84.1

QUERY: Field request: growth | item: O=C1OC(C(Cl)(Cl)Cl)OC1C(Cl)(Cl)Cl (stereo unspecified)
RESULT: 122

Origin of values: PubChem BioAssay (NCI)
